system: MDA-MB-231 breast; assay: NCI-60 one-dose screen, 48 h; conditions: 10 µM unless noted
About 83,000 compounds went through this panel and 20% of them were active in at least one assay; those are over-represented in the sample as a whole. Calls of active or inactive are those of the source. How the source made its calls: active means growth percent below 10; inactive means the rest.
Hi! Could you answer with just one of these? active, inactive

Example cases with answers are listed next.
{"columns": ["molecule", "group.label"],
 "data": [
  ["C=C1C(=O)O[C@H]2[C@H]1CC/C(Cn1cc(Cc3c[nH]c4ccccc34)nn1)=C\\CC[C@@]1(C)O[C@@H]21", "active"],
  ["O=C(CN1CCN(c2cc3c(cc2F)c(=O)c(C(=O)O)cn3C2CC2)CC1)Nc1nc(-c2ccccc2)cs1", "inactive"],
  ["N#Cc1c2c(nc3n[nH]c(N)c13)CCCC2", "inactive"],
  ["Cc1ccc(S(=O)(=O)n2cc(-c3csc(-c4cn(C)c5ncccc45)n3)c3ccccc32)cc1", "inactive"]
]}

For the next question, use this molecule.
Input line: Field: outcome | Entry: CSc1ncnc2c1ncn2C1CCCO1 (stereo not given)
Output line: inactive
